TEST_SUMMARY: Biodistribution in SCID mice bearing AsPC-1 xenografts
Format: in vivo
RUN_PARAMETERS: male, mouse, kidneys, iv, 3 pmol, total radioactivity, 24 h pi, Controls, read-out: uptake in Kidneys
Peptide text beside a SMILES is read from it. * marks the point of attachment. Palmitoyl = CCCCCCCCCCCCCCCC(=O)*; X1 = NCCNCC(CNCCN)C(=O)*
MEASURED_ENDPOINT: tissue uptake at 24 h (%ID/g)
State just the number; it will be interpreted in %ID/g.

Return reported tissue uptake at 24 h; argument: CCCCCCCCCCCCCCCC(=O)NCCCC[C@H](NC(=O)C(CNCCN)CNCCN)C(=O)N[C@@H](CCCNC(=N)N)C(=O)N[C@@H](CCCNC(=N)N)C(=O)N1CCC[C@H]1C(=O)N[C@@H](Cc1ccc(O)cc1)C(=O)N[C@H](C(=O)N[C@@H](CC(C)C)C(=O)O)[C@@H](C)CC [[^99mTc]Tc-DT9, metal not drawn] (X1-K(Palmitoyl)RRPYIL-OH)
3.81

====

TEST_SUMMARY: Biodistribution in SCID mice bearing AsPC-1 xenografts
Type: in vivo
RUN_PARAMETERS: male, mouse, liver, iv, 3 pmol, total radioactivity, 24 h pi, Controls, read-out: uptake in Liver
Peptide text beside a SMILES is read from it. * marks the point of attachment. Palmitoyl = CCCCCCCCCCCCCCCC(=O)*; X1 = NCCNCC(CNCCN)C(=O)*
MEASURED_ENDPOINT: tissue uptake at 24 h (%ID/g)
Just the number please, in %ID/g, no unit attached.

Please report the recorded tissue uptake at 24 h for CCCCCCCCCCCCCCCC(=O)NCCCC[C@H](NC(=O)C(CNCCN)CNCCN)C(=O)N[C@@H](CCCNC(=N)N)C(=O)N[C@@H](CCCNC(=N)N)C(=O)N1CCC[C@H]1C(=O)N[C@@H](Cc1ccc(O)cc1)C(=O)N[C@H](C(=O)N[C@@H](CC(C)C)C(=O)O)[C@@H](C)CC [[^99mTc]Tc-DT9, metal not drawn] (X1-K(Palmitoyl)RRPYIL-OH) .
12.9

====

TEST_SUMMARY: Biodistribution in SCID mice bearing AsPC-1 xenografts
Assay type: in vivo
RUN_PARAMETERS: male, mouse, kidneys, iv, total radioactivity, 24 h pi, Entresto+Lis, read-out: uptake in Kidneys
Peptide text beside a SMILES is read from it. * marks the point of attachment. Palmitoyl = CCCCCCCCCCCCCCCC(=O)*; X1 = NCCNCC(CNCCN)C(=O)*
MEASURED_ENDPOINT: tissue uptake at 24 h (%ID/g)
# value in %ID/g; strip the unit string

Report tissue uptake at 24 h for CCCCCCCCCCCCCCCC(=O)NCCCC[C@H](NC(=O)C(CNCCN)CNCCN)C(=O)N[C@@H](CCCNC(=N)N)C(=O)N[C@@H](CCCNC(=N)N)C(=O)N1CCC[C@H]1C(=O)N[C@@H](Cc1ccc(O)cc1)C(=O)N[C@H](C(=O)N[C@@H](CC(C)C)C(=O)O)[C@@H](C)CC [[^99mTc]Tc-DT9, metal not drawn] (X1-K(Palmitoyl)RRPYIL-OH) please.
4.63
